# TARGET DESC: Chk2 (Homo sapiens, UniProt O96017)
# Sequence (O96017 whole entry): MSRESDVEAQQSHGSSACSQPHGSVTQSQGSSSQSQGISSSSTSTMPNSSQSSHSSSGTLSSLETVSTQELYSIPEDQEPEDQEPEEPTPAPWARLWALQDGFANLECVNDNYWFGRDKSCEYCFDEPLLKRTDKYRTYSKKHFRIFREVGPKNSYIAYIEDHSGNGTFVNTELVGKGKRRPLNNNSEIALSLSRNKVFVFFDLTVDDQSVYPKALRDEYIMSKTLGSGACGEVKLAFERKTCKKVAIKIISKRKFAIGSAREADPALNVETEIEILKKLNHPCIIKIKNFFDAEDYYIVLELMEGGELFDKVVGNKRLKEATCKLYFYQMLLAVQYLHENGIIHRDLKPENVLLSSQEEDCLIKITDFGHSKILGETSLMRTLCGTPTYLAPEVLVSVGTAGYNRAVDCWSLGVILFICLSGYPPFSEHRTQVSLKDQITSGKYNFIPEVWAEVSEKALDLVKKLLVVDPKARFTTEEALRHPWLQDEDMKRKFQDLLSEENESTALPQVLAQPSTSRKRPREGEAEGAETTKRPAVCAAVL
# EXPERIMENTAL DETAILS: Chk2 inhibitor IMAP assay (high-throughput Chk2 screening assay)
# CONDITION LABEL: IMAP fluorescence polarization assay, 10 μM ATP
Listed here are compounds together with their documented EC50.
QUANTITY KIND: EC50

# COMPOUND, QUANTITY KIND, EXPERIMENTAL VALUE
measured = [
    ("CC(=NNC(=N)N)c1ccc(NC(=O)Nc2ccc(C(C)CNC(=N)N)cc2)cc1 (centres unmarked)", "EC50", "> 10000 nM"),
    ("COc1ccc2oc(C(=O)Nc3ccc(/C(C)=N/NC(=N)N)cc3)cc2c1", "EC50", "100 to 300 nM"),
    ("COc1cc2cc(C(=O)Nc3ccc(/C(C)=N/NC(=N)N)cc3)[nH]c2cc1OC", "EC50", "300 to 1000 nM"),
    ("CC(=NNC(N)=NO)c1ccc(NC(=O)Nc2ccc(C(C)=NNC(N)=NO)cc2)cc1", "EC50", "< 100 nM"),
    ("C/C(=N\\NC(=N)N)c1ccc2[nH]c(C(=O)Nc3ccc4cc[nH]c4c3)cc2c1", "EC50", "300 to 1000 nM"),
    ("COc1ccc2[nH]c(C(=O)Nc3ccc(/C(C)=N/NC(=N)N)cc3)cc2c1", "EC50", "< 100 nM"),
    ("C/C(=N\\NC(=N)N)c1ccc(NC(=O)c2ccc(-c3cnc(N)nc3)cc2)cc1", "EC50", "300 to 1000 nM"),
    ("C/C(=N\\NC(=N)N)c1ccc(NC(=O)c2cc3cc(/C(C)=N/NC(=N)N)ccc3[nH]2)cc1", "EC50", "< 100 nM"),
]

----------
# TARGET DESC: Chk2 (Homo sapiens)
# EXPERIMENTAL DETAILS: Chk2 inhibitor IMAP assay (high-throughput Chk2 screening assay)
# CONDITION LABEL: IMAP fluorescence polarization assay, 10 μM ATP
pEC50: −log10 of the molar value.
QUANTITY KIND: pEC50

# MOLECULE, EXPERIMENTAL VALUE
rows = [
    ("C/C(=N\\NC(=N)N)c1ccc(NC(=O)c2cn3ccccc3n2)cc1 [Compound 106]", "5.00 to 6.00"),
    ("C/C(=N\\NC(=N)N)c1ccc2[nH]c(C(=O)Nc3ccc4nc[nH]c4c3)cc2c1 [Compound 121]", "> 7.00"),
    ("COc1cc2cc(C(=O)Nc3ccc(/C(C)=N/NC(=N)N)cc3)[nH]c2cc1NC(C)=O [Compound 98]", "5.00 to 6.00"),
    ("C/C(=N\\NC1=NCCN1)c1ccc(NC(=O)c2cc3cccc([N+](=O)[O-])c3[nH]2)cc1 [Compound 22]", "> 7.00"),
    ("CC(C)CC(=NNC(=N)N)c1ccc2[nH]c(C(=O)Nc3ccc4cc[nH]c4c3)cc2c1 (single isomer, unassigned) [Compound 124]", "5.00 to 6.00"),
    ("C/C(=N\\NC(=N)N)c1ccc(NC(=O)c2cc3ccc(N)cc3[nH]2)cc1 [Compound 83]", "5.00 to 6.00"),
    ("COc1ccc2[nH]nc(C(=O)Nc3ccc(/C(C)=N/NC(=N)N)cc3)c2c1 [Compound 41]", "5.00 to 6.00"),
    ("CCCC(=NNC(=N)N)c1ccc(NC(=O)Nc2ccc(C(CCC)=NNC(=N)N)cc2)cc1 [Compound 3]", "> 7.00"),
    ("C/C(=N\\NC(=N)N)c1ccc(NC(=O)Nc2ccc(-c3csc(NN)n3)cc2)cc1 [Compound 48]", "< 5.00"),
    ("CCCOc1ccc2cc(C(=O)Nc3ccc(/C(C)=N/NC(=N)N)cc3)[nH]c2c1 [Compound 90]", "5.00 to 6.00"),
    ("CC(C)CC(=NNC(=N)N)c1ccc2[nH]c(C(=O)Nc3ccc4cc[nH]c4c3)cc2c1 (single isomer, unassigned) [Compound 123]", "> 7.00"),
    ("COc1cc2nc(NC(=O)c3ccc(/C(C)=N\\NC(=N)N)cc3)sc2cc1OC [Compound 45]", "5.00 to 6.00"),
    ("C/C(=N\\NC(=N)N)c1ccc(NC(=O)c2cc3cccc(C(F)(F)F)c3[nH]2)cc1 [Compound 85]", "< 5.00"),
    ("C/C(=N\\NC(=N)N)c1ccc2[nH]c(C(=O)Nc3ccc(C)cn3)cc2c1 [Compound 103]", "5.00 to 6.00"),
    ("C/C(=N\\N/C(=N\\N)NN)c1ccc(NC(=O)Nc2ccc(/C(C)=N/N/C(=N\\N)NN)cc2)cc1 [Compound 65]", "6.52 to 7.00"),
    ("C/C(=N\\NC(=N)N)c1ccc(NC(=O)c2cc3cc(Br)ccc3o2)cc1 [Compound 32]", "5.00 to 6.00"),
    ("C/C(=N\\NC(=N)N)c1ccc(NC(=O)c2cc3ccccc3[nH]2)cc1 [Compound 7]", "6.00 to 6.52"),
    ("CC(=O)c1ccc(NC(=O)Nc2ccc(/C(C)=N/NC3=NCCN3)cc2)cc1 [Compound 66]", "6.52 to 7.00"),
    ("C/C(=N\\NC(=N)N)c1ccc(NC(=O)Nc2ccc(NC(=O)Nc3ccc(/C(C)=N/NC(=N)N)cc3)cc2)cc1 [Compound 39]", "> 7.00"),
    ("CC(=O)c1ccc2[nH]c(C(=O)Nc3ccc(/C(C)=N/NC(=N)N)cc3)cc2c1 [Compound 71]", "> 7.00"),
    ("CC/C(=N\\NC(=N)N)c1ccc(NC(=O)c2ccco2)cc1 [Compound 53]", "5.00 to 6.00"),
    ("COC(=O)c1ccc(NC(=O)Nc2ccc(/C(C)=N/NC(=N)N)cc2)cc1 [Compound 56]", "5.00 to 6.00"),
    ("C/C(=N\\NC(=N)N)c1ccc2[nH]c(C(=O)Nc3ccc(N4CCNCC4)cc3)cc2c1 [Compound 49]", "6.52 to 7.00"),
    ("C/C(=N\\NC(=N)N)c1ccc(NC(=O)c2cc3cc(C(CC(C)C)=NNC(=N)N)ccc3[nH]2)cc1 [Compound 130]", "> 7.00"),
]
